# MIC measurements, system: S. epidermidis, 56500
# unit: µg/mL | format: bare number

C[C@H]1COc2c(N3CCN(C)CC3)c(F)cc3c(=O)c(C(=O)O)cn1c23 :: 0.39
O=C(O)c1cn(C2CC2)c2cc(N3CCNCC3)c(F)cc2c1=O :: 0.2
COc1c(N2CC3(CC3)[C@](C)(N)C2)c(F)cc2c(=O)c(C(=O)O)cn([C@@H]3C[C@@H]3F)c12 [Hemihydrate] :: 0.1

// moving on: another record for MIC
Enquiry: Test system S. epidermidis, 56500; read-out MIC; what value for COc1c(N2CCNC(C)C2)c(F)cc2c(=O)c(C(=O)O)cn(C3CC3)c12 (stereo not shown) ?
Return: 0.2

====

Recorded MIC, one value per entry.
# Test system: E. faecalis, ATCC 19433
# unit: mg/L | format: bare number

Please review the following examples before continuing.
C[C@H]1COc2c(N3CCN(C)CC3)c(F)cc3c(=O)c(C(=O)O)cn1c23 :: 0.78
COc1c(N2CC3(CC3)[C@](C)(N)C2)c(F)cc2c(=O)c(C(=O)O)cn([C@@H]3C[C@@H]3F)c12 [Hemihydrate] :: 0.2
O=C(O)c1cn(C2CC2)c2cc(N3CCNCC3)c(F)cc2c1=O :: 0.78

// moving on: another record for MIC
Enquiry: Test system E. faecalis, ATCC 19433; read-out MIC; what value for COc1c(N2CCNC(C)C2)c(F)cc2c(=O)c(C(=O)O)cn(C3CC3)c12 (stereo not shown) ?
Return: 0.39

====

# Tested on: P. aeruginosa, 32104
# experimentalDetails: Antibacterial activity MIC, Japanese Society of Chemotherapy standard procedure
# setupConditions: Pseudomonas aeruginosa
attributeMeasured: MIC
# do not omit the unit; it follows the number

Please review the following examples before continuing.
COc1c(N2CCNC(C)C2)c(F)cc2c(=O)c(C(=O)O)cn(C3CC3)c12 (stereo not shown) :: 0.2 mg/L
C[C@H]1COc2c(N3CCN(C)CC3)c(F)cc3c(=O)c(C(=O)O)cn1c23 :: 0.2 mg/L
O=C(O)c1cn(C2CC2)c2cc(N3CCNCC3)c(F)cc2c1=O :: 0.05 mg/L

Enquiry: If you can, please state the reported MIC value of COc1c(N2CC3(CC3)[C@](C)(N)C2)c(F)cc2c(=O)c(C(=O)O)cn([C@@H]3C[C@@H]3F)c12 [Hemihydrate] .
Return: 0.39 mg/L
